Items are presented alongside their recorded stoichiometry N.
# experimental target: T1, mature pertactin (Prn), wild type (Bordetella pertussis, strain  …)
# T1 construct: Pertactin (Prn) of Bordetella pertussis, mature N-terminal passenger domain (63 kDa), cut from the precursor; Kept in 0.06% C10E5 detergent for native MS; also called Prn antigen; wild-type Prn
# T1 chain: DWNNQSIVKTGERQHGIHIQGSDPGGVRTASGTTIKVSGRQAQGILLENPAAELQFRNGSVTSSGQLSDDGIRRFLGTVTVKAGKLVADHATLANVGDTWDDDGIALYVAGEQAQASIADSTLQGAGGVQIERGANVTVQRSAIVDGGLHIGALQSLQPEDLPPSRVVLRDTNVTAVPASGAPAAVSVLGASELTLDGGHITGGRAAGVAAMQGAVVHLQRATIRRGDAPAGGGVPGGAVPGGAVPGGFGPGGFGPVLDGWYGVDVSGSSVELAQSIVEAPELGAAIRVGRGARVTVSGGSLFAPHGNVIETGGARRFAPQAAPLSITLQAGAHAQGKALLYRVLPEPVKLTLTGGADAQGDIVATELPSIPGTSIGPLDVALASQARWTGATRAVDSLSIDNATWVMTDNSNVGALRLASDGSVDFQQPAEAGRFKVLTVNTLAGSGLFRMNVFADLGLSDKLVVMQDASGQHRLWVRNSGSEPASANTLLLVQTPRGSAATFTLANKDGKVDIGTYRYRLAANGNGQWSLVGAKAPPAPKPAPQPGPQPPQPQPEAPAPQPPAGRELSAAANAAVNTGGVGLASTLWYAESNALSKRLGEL
# assay protocol: native MS; titration: fixed 2 µM mAb, Prn 0.5 µM to 8 µM, 250 mM ammonium acetate with 0.06% C10E5
# test conditions: both partners purified

[
  {
    "binder": "2E9 monoclonal antibody (antibody, V domains shown, variable region of 2E9; mouse IgG2a heavy chain constant domains; mouse light chain constant domain; Full-length mouse IgG2a; also called 2E9 mAb; source: ExpiCHO-S, transfected, purified (Protein A); copies: 2 + 2) VH: QVQLQQSGPELVKPGASVKMSCKASGYTFTSNYIHWMKQRPGQGLEWIGWIYPGDGSSKYNEKFKGKTTLTADRSSSTAYMLLSSLTSEDSAIYFCANYFYAMDQWGQGTSVTVSR VL: IVLTQSHKFMSTSVGDRVSITCKASQDVSTAVAWYQQKPGQSPKLLIYWASTRHTGVPDRFTGSGSGTDYTLTISSVQAEDLALYYCQQHYSTPWTFGGGTKLEIK",
    "uom": "Prn per mAb",
    "stoichiometry N": 2
  },
  {
    "binder": "1F2 monoclonal antibody (antibody, V domains shown, variable region of 1F2; mouse IgG2a heavy chain constant domains; mouse light chain constant domain; Full-length mouse IgG2a; also called 1F2 antibody; source: ExpiCHO-S, transfected, purified (Protein A); copies: 2 + 2) VH: EVQLVESGGGLVKPGESLKLSCAASGFTFNSYTMSWVRQTPEKRLEWVATISSGGSYTYYPDSVKGRFTISRDNAKNTLYLQMSSLKSEDTAMYYCIRVGGLFDYWGQGTTLTVSR VL: IQMIQSHKFMSTSVGDRVSITCKASQDVSTAVAWYQQKPGQSPKLLIYWASTRHTGVPDRFTGSGSGTDFTLTISGVQAEDLALYYCQQHYTTPWTFGGGTKLEIK",
    "uom": "Prn per mAb",
    "stoichiometry N": 2
  },
  {
    "binder": "1E7 monoclonal antibody (antibody, V domains shown, variable region of 1E7; mouse IgG2a heavy chain constant domains; mouse light chain constant domain; Full-length mouse IgG2a; source: ExpiCHO-S, transfected, purified (Protein A); copies: 2 + 2) VH: QVQLQQPAAELARPGASVKMSCRASGYTFTTYTMHWVKQRPGQGLEWIGYINPSSGYTDYNQKFRDKITLTADKSSSTAYMQLSSLTSGDSAVYYCAREDYYGQGFTYWGQGTLVTVSR VL: IVMTQSTSSLSASLGDRVTISCRASQDISNYLNWYQQKPDGTVKLLIYYTSRLHSGVPSRFSGSGSGTDYSLTISNLEQEDIATYFCQQGNMFPWTFGGGTKLELK",
    "uom": "Prn per mAb",
    "stoichiometry N": 2
  }
]
